Biological target: Adenosine A2 receptor (guinea pig)
Assay: Binding affinity against adenosine A2 receptor of striatal membrane using [3H]CGS-21680 as a radioligand

{"columns": ["molecule.smiles", "Ki"],
 "data": [
  ["CCCn1c(=O)n(CC(C)=O)c(=O)c2[nH]cnc21", "> 200 µM"],
  ["CCCn1c(=O)n(C)c(=O)c2c1ncn2CCN(C)C", "> 200 µM"],
  ["CCCn1c(=O)n(C)c(=O)c2c1ncn2CCC(=O)O", "> 200 µM"],
  ["CCCn1c(=O)n(CCOC)c(=O)c2[nH]cnc21", "21.6 µM"],
  ["CCCn1c(=O)n(C)c(=O)c2c1ncn2CCC#N", "> 200 µM"],
  ["CCCn1c(=O)n(C)c(=O)c2c1ncn2CCCN(C)C", "> 200 µM"],
  ["CCCn1c(=O)n(C)c(=O)c2c1ncn2CCO", "> 200 µM"],
  ["CCCn1c(=O)n(CCC(N)=O)c(=O)c2[nH]cnc21", "> 200 µM"],
  ["CCCn1c(=O)n(C)c(=O)c2c1ncn2CCOC", "58.7 µM"],
  ["CCCn1c(=O)n(CCCOC)c(=O)c2[nH]cnc21", "15.7 µM"],
  ["CCCn1c(=O)n(CCC(=O)O)c(=O)c2[nH]cnc21", "> 200 µM"],
  ["CCCn1c(=O)n(C)c(=O)c2c1ncn2CCOCC", "22.9 µM"],
  ["CCCn1c(=O)n(CC(=O)O)c(=O)c2[nH]cnc21", "> 200 µM"],
  ["CCCn1c(=O)n(C)c(=O)c2c1ncn2CC(N)=O", "> 200 µM"],
  ["CCCn1c(=O)n(C)c(=O)c2c1ncn2CCCO", "> 200 µM"],
  ["CCCn1c(=O)n(CC)c(=O)c2[nH]cnc21", "3.9 µM"],
  ["C=CCn1c(=O)c2[nH]cnc2n(CCC)c1=O", "11.8 µM"],
  ["CCCn1c(=O)n(CCC(C)=O)c(=O)c2[nH]cnc21", "144 µM"],
  ["CCCn1c(=O)n(CCOCC)c(=O)c2[nH]cnc21", "12 µM"],
  ["CCCn1c(=O)n(C)c(=O)c2c1ncn2CCC(C)=O", "> 200 µM"],
  ["CCCn1c(=O)n(CCO)c(=O)c2[nH]cnc21", "> 200 µM"],
  ["CCCn1c(=O)n(CCCN(C)C)c(=O)c2[nH]cnc21", "> 200 µM"],
  ["CCCn1c(=O)n(CCN(C)C)c(=O)c2[nH]cnc21", "> 200 µM"],
  ["CCCn1c(=O)n(CCC#N)c(=O)c2[nH]cnc21", "162 µM"]
]}
